Entry source: a collection of fitness landscapes (doi:10.1016/j.celrep.2020.107928)

Parameter one-hybrid fitness for binding parS DNA: see the listing below.
B1: Caulobacter ParB omega fusion; a variant is named by its letters at X, in order, B8GW30 (parent)
chain: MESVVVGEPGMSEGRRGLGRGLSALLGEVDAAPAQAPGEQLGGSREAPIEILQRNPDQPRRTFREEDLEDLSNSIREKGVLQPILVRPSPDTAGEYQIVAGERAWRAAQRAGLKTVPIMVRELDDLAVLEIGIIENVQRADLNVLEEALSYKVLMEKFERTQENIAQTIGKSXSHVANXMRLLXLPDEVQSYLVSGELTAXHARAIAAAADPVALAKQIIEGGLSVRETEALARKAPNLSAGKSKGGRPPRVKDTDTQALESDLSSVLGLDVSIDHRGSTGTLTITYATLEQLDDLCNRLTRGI

- Variants of: B1
- Assay info: one-hybrid fitness for binding parS DNA (scaled: cognate 1, non-cognate 0); higher = stronger binding
- Details: with parS DNA site
Over roughly 81,000 sequences, “one-hybrid fitness for binding parS DNA” has its median near -0.17; the highest 2% begin near 0.51. This is one part of a sample in which the highest values are shown more often than they occur.

# Mutation key, one-hybrid fitness for binding parS DNA
records = [
    ("RAWD", "≤ 0.2"),
    ("HSSQ", "≤ 0.2"),
    ("PWEG", "≤ 0.2"),
    ("QRWL", "≤ 0.2"),
    ("RAIP", "≤ 0.2"),
    ("HFHS", "≤ 0.2"),
    ("RARH", "≤ 0.2"),
    ("AELV", "≤ 0.2"),
    ("EFPF", "≤ 0.2"),
    ("GTAW", "≤ 0.2"),
    ("PRMG", "≤ 0.2"),
    ("RRDD", "≤ 0.2"),
    ("RAWP", "≤ 0.2"),
    ("TVLI", "≤ 0.2"),
    ("FDTS", "≤ 0.2"),
    ("RFPT", 0.376),
    ("DRVV", "≤ 0.2"),
    ("FGAE", "≤ 0.2"),
    ("DMYA", "≤ 0.2"),
    ("RRDS", 0.743),
    ("RRNH", 0.256),
    ("RRNN", 0.811),
    ("RRNP", "≤ 0.2"),
    ("QTRM", "≤ 0.2"),
    ("IMES", "≤ 0.2"),
    ("RLYY", 0.497),
    ("RFRH", 0.219),
    ("RSGY", 0.482),
    ("RPGY", "≤ 0.2"),
    ("HHAP", "≤ 0.2"),
]
